Listed next: entries and their corresponding pIC50.
Test system: Phospho-ERK levels in KYSE-520 cells
Test: pERK AlphaScreen Protocol
Assay type: cell-based
Conditions: Homo sapiens, KYSE-520, 2 h, KYSE-520 cells, 2 hr compound incubation, phospho-ERK1/2 AlphaScreen SureFire; read-out: PERK Avg IC50
Procedure: KYSE-520 cells (10 k cells/well) were grown in 384-well plate in 20 uL of medium (RPMI-1640, without phenol red, containing 10% FBS) at 37° C. with 5% CO2 overnight. […] Phospho-ERK levels were measured using phospho-ERK1/2 AlphaScreen SureFire (PerkinElmer, TGRESB10K) following manufacturer's recommendations. Dose-response curves were analyzed using IC50 regression curve fitting (GeneData Screener). […]
Reminder that pIC50 means the negative base-10 logarithm of the concentration expressed in mol/L.

Reference set (10 entries):
{"SMILES_STRING": "CC1(N)CCN(c2cnc3c(-c4ccccc4Cl)n[nH]c3n2)CC1", "QUANTITATIVE_RESULT": 6.80}
{"SMILES_STRING": "Cc1ncccc1-c1n[nH]c2nc(N3CCC4(CCC[C@H]4N)CC3)cnc12", "QUANTITATIVE_RESULT": 6.15}
{"SMILES_STRING": "N[C@@H]1CCCC12CCN(c1cnc3c(-c4ccc(Cl)c(Cl)c4)n[nH]c3n1)CC2", "QUANTITATIVE_RESULT": 6.18}
{"SMILES_STRING": "CC1(N)CCN(c2cnc3c(-c4cccc(C(F)(F)F)c4)n[nH]c3n2)CC1", "QUANTITATIVE_RESULT": 6.21}
{"SMILES_STRING": "CC1(CN)CCN(c2cnc3c(-c4ccc(Cl)cc4)n[nH]c3n2)CC1", "QUANTITATIVE_RESULT": 6.51}
{"SMILES_STRING": "CC1(CN)CCN(c2cnc3c(-c4cn[nH]c4C(F)(F)F)n[nH]c3n2)CC1", "QUANTITATIVE_RESULT": 5.79}
{"SMILES_STRING": "CC1(N)CCN(c2cnc3c(-c4ccc(Cl)cc4)n[nH]c3n2)CC1", "QUANTITATIVE_RESULT": 6.99}
{"SMILES_STRING": "NCC1(O)CCN(c2cnc3c(-c4ccccc4Cl)n[nH]c3n2)CC1", "QUANTITATIVE_RESULT": 6.50}
{"SMILES_STRING": "CC1(N)CCN(c2cnc3c(-c4cc(Cl)cc(Cl)c4)n[nH]c3n2)CC1", "QUANTITATIVE_RESULT": 6.21}
{"SMILES_STRING": "Cc1c(Cl)cccc1-c1n[nH]c2nc(N3CCC(C)(CN)CC3)cnc12", "QUANTITATIVE_RESULT": 6.72}

Continue with the next compound.
Tell me reported pIC50 for N[C@@H]1CCCC12CCN(c1cnc3c(-c4cn[nH]c4C(F)(F)F)n[nH]c3n1)CC2 , tested with Phospho-ERK levels in KYSE-520 cells. 5.93

====

Listed next: entries and their corresponding log10(IC50).
Tested on: Phospho-ERK levels in KYSE-520 cells
Test: pERK AlphaScreen Protocol
Type: cell-based
Conditions: Homo sapiens, KYSE-520, 2 h, KYSE-520 cells, 2 hr compound incubation, phospho-ERK1/2 AlphaScreen SureFire; read-out: PERK Avg IC50
Description: KYSE-520 cells (10 k cells/well) were grown in 384-well plate in 20 uL of medium (RPMI-1640, without phenol red, containing 10% FBS) at 37° C. with 5% CO2 overnight. […] Phospho-ERK levels were measured using phospho-ERK1/2 AlphaScreen SureFire (PerkinElmer, TGRESB10K) following manufacturer's recommendations. Dose-response curves were analyzed using IC50 regression curve fitting (GeneData Screener). […]
Hi team, quick reminder: these entries are log10 of IC50 (nM).

Reference set (5 entries):
{"COMPOUND": "NCC1(O)CCN(c2cnc3c(-c4cccc(F)c4Cl)n[nH]c3n2)CC1 [Example 37]", "log10(IC50)": 2.35}
{"COMPOUND": "N[C@@H]1COCC12CCN(c1cnc3c(-c4ccnc(O)c4Cl)n[nH]c3n1)CC2 [Example 109]", "log10(IC50)": 4.00}
{"COMPOUND": "N[C@@H]1CCCC12CCN(c1cnc3c(-c4cccc(Cl)c4F)n[nH]c3n1)CC2 [Example 49]", "log10(IC50)": 1.79}
{"COMPOUND": "Nc1nccc(-c2n[nH]c3nc(N4CCC5(CCC5N)CC4)cnc23)c1Cl (single isomer, unassigned; enantiomer 1) [Example 136a]", "log10(IC50)": 3.36}
{"COMPOUND": "Nc1cc(-c2n[nH]c3nc(N4CCC5(CCC[C@H]5N)CC4)cnc23)c(Cl)cn1 [Example 125]", "log10(IC50)": 2.63}

// query log10(IC50) value for entry CC1(N)CCN(c2cnc3c(-c4ccnc(O)c4Cl)n[nH]c3n2)CC1 [Example 117] 3.68

Try NC1(CF)CCN(c2cnc3c(-c4cccc(Cl)c4Cl)n[nH]c3n2)CC1 [Example 58] next. 2.04

Try Nc1nccc(-c2n[nH]c3nc(N4CCC5(CCC5N)CC4)cnc23)c1Cl (stereo not drawn) [Example 115] next. 2.63

Try CC1(CN)CCN(c2cnc3c(-c4cccc(C(F)(F)F)c4)n[nH]c3n2)CC1 [Example 22] next. 2.99
